Reference source for all entries: ChEMBL document CHEMBL2218924

Biological target: Serine/threonine-protein kinase 4 (Homo sapiens)
Sequence (whole entry): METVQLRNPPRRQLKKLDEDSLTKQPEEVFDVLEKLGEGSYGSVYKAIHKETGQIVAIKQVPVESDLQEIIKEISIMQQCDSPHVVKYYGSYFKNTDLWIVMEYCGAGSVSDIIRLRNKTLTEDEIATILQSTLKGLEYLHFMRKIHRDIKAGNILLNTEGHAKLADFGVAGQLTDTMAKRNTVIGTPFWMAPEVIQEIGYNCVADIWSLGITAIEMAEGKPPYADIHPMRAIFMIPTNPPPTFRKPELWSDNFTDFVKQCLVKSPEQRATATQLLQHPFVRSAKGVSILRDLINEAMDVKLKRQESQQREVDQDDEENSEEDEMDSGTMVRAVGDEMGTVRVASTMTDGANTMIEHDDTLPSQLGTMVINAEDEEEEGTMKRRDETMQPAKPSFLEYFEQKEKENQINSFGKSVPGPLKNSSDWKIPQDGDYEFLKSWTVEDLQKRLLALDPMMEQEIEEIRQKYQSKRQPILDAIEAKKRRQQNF
Settings: at 1 µM
Kindly apply the following: 1 (yes) if residual activity is less than 90%, 0 (no) in every other case.

- COc1cccc(-c2cc(=O)c3ccccc3o2)c1N: 1 (yes)
- CCN(CC)CCCCN1c2ccccc2Oc2ccc(Cl)cc21: 0 (no)
- Cc1cccc(-c2[nH]c(C(C)(C)C)nc2-c2ccc3c(c2)OCO3)n1: 0 (no)
- O=[N+]([O-])c1ccc(-c2nc(-c3ccc(F)cc3)c(-c3ccncc3)[nH]2)cc1: 1 (yes)
